- ASSAY_SYSTEM: c-Src SH2;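 note: peptide library displayed on the E. coli surface as eCPX fusions, selected cells deep-sequenced, score is each peptide's frequency after selection divided by its frequency in the input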
- ASSAY_OVERVIEW: SH2 binding enrichment of the phosphorylated peptide, bacterial display (enrichment ratio); higher = better substrate or ligand; peptides without Tyr show the background
Label t when SH2 binding enrichment >= 0.5; otherwise f.

{"SEQUENCE_DATA": "INNIDYFKKTT [FGFR2_Y656_YF]", "CLASSIFICATION": "f"}
{"SEQUENCE_DATA": "TLARLYHRDST [LRIG1_Y1029_P1031R]", "CLASSIFICATION": "t"}
{"SEQUENCE_DATA": "SSNLYYRCLTA [CNGA3_Y169_W171C]", "CLASSIFICATION": "f"}
{"SEQUENCE_DATA": "RPGSGYTKIMR [PKLR_Y564_N566K]", "CLASSIFICATION": "t"}
{"SEQUENCE_DATA": "MGRVNYGAFIN [GLB1_Y485_YF]", "CLASSIFICATION": "t"}
{"SEQUENCE_DATA": "GIVEDYRPTFF [ACVRL1_Y421_P424T_YF]", "CLASSIFICATION": "f"}
{"SEQUENCE_DATA": "VVKLTYNENDN [CAMKK2_Y183_A182T]", "CLASSIFICATION": "f"}
{"SEQUENCE_DATA": "AGIENYKSRFG [NKD2_Y256_T257K]", "CLASSIFICATION": "f"}
{"SEQUENCE_DATA": "NREGVYTVSAP [TGFBI_Y537_F540S]", "CLASSIFICATION": "f"}
{"SEQUENCE_DATA": "WDLTDYLMKIL [ACTB_Y188_R183W]", "CLASSIFICATION": "t"}
{"SEQUENCE_DATA": "QRALLYEDTLF [UNC13D_Y56_A59T_YF]", "CLASSIFICATION": "t"}
{"SEQUENCE_DATA": "PLQSEYSSITT [ITGB4_Y1760]", "CLASSIFICATION": "t"}
{"SEQUENCE_DATA": "GLVFLYVEKNQ [PRELP_Y156_M157V]", "CLASSIFICATION": "t"}
{"SEQUENCE_DATA": "SCRENYSFSEE [LEMD3_Y258_D260Y_YF]", "CLASSIFICATION": "t"}
{"SEQUENCE_DATA": "HFPFQCHRQLY [F12_Y53_Y53C]", "CLASSIFICATION": "t"}
{"SEQUENCE_DATA": "KTTSGYAGGLS [KRT8_Y419]", "CLASSIFICATION": "f"}
{"SEQUENCE_DATA": "AMCVCYDGVEV [ADAMTSL2_Y594_R593C]", "CLASSIFICATION": "t"}
{"SEQUENCE_DATA": "KDQGIYEDFVE [MYL6_Y86_T85I_YF]", "CLASSIFICATION": "t"}
{"SEQUENCE_DATA": "CTTIRYNYMCN [TP53_Y234_H233R]", "CLASSIFICATION": "t"}
{"SEQUENCE_DATA": "KVGPGYLGSGG [RET_Y826]", "CLASSIFICATION": "f"}
{"SEQUENCE_DATA": "GGDGSYVSVPL [TNNI3K_Y425_S430L]", "CLASSIFICATION": "t"}
{"SEQUENCE_DATA": "IGEGTYGVLFK [CDK2_Y15_V18L_YF]", "CLASSIFICATION": "f"}
{"SEQUENCE_DATA": "KRLKDYLTVLQ [USP25_Y425]", "CLASSIFICATION": "t"}
{"SEQUENCE_DATA": "CEHRGFLFLAI [TEK_Y897_Y897F_YF]", "CLASSIFICATION": "t"}
{"SEQUENCE_DATA": "SIKDKYVTAVY [KCNH2_Y611_L615V]", "CLASSIFICATION": "f"}
{"SEQUENCE_DATA": "ATHSRYRLNDY [CLDN14_Y233_G232R]", "CLASSIFICATION": "t"}
{"SEQUENCE_DATA": "PLTRSYIREKV [CYP2C8_Y243_A238P]", "CLASSIFICATION": "f"}
{"SEQUENCE_DATA": "EQKKYYNAMKK [SCN5A_Y1495]", "CLASSIFICATION": "t"}
{"SEQUENCE_DATA": "LLVVLYKFRCF [PSEN1_Y154_Y159F_YF]", "CLASSIFICATION": "t"}
{"SEQUENCE_DATA": "NRNVRYLTLDI [AKR1C2_Y305]", "CLASSIFICATION": "t"}
{"SEQUENCE_DATA": "LSQDVYEEDSF [RET_Y900_R897Q_YF]", "CLASSIFICATION": "t"}
{"SEQUENCE_DATA": "VFAANYFKLLG [ROR2_Y645_D644N_YF]", "CLASSIFICATION": "t"}
{"SEQUENCE_DATA": "EERNTYVNTTL [TEK_Y1102_K1100N]", "CLASSIFICATION": "t"}

From: the supplement of paper PMC10065799
